Entries annotated with measured PBM E-score
Target: Vhr1 (UniProt P40522)
Sequence: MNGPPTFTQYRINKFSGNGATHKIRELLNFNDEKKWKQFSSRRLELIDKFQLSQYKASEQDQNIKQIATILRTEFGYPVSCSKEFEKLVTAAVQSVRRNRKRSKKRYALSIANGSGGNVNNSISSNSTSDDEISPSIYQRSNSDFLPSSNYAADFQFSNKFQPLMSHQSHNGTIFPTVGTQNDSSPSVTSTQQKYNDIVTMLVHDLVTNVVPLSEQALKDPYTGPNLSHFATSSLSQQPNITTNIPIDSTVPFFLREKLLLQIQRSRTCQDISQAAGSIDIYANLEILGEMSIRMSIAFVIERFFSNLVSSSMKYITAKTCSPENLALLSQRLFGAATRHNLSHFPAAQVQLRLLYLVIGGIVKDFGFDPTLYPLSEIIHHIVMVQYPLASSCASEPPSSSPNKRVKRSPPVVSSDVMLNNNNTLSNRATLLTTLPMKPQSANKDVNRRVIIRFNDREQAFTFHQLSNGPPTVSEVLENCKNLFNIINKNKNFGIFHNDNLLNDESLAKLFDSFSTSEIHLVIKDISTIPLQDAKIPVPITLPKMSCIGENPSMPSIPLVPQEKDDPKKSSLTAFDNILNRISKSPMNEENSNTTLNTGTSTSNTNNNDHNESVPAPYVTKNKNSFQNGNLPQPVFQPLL
Test: PBM E-score (8-mer binding enrichment) (E-score (-0.5 to 0.5)); higher = stronger / more preferred TF binding
Settings: protein concentration: 200 nM; construct: GST-full length
Whole data set: some 33,000 sequences, median “E-score (-0.5 to 0.5)” near -0.012, cut for the highest 2% near 0.27. Shown is part of a subset that was picked to be rich in the highest values.
In your answer, state the number alone without any accompanying words.

AGCTCCCT
-0.235

stdin: Please report PBM E-score for the following sequence: CGTATGAC
stdout: 0.142

stdin: Please report PBM E-score for the following sequence: ATTACTTG
stdout: 0.164

stdin: Please report PBM E-score for the following sequence: TCGTCACA
stdout: 0.0377

stdin: Please report PBM E-score for the following sequence: TGGTCACA
stdout: 0.035

stdin: Please report PBM E-score for the following sequence: AGTATGAC
stdout: 0.311

stdin: Please report PBM E-score for the following sequence: CTGATTCC
stdout: 0.261

stdin: Please report PBM E-score for the following sequence: ATTTGACA
stdout: -0.00873

stdin: Please report PBM E-score for the following sequence: AAGTTCGG
stdout: -0.155

stdin: Please report PBM E-score for the following sequence: AGTTTGAT
stdout: 0.0522

stdin: Please report PBM E-score for the following sequence: AACCAACT
stdout: 0.0869

stdin: Please report PBM E-score for the following sequence: AACACCAC
stdout: 0.0462

stdin: Please report PBM E-score for the following sequence: AGACCTCT
stdout: -0.143
